experimentDescription: Hepatocyte stability assay, human hepatocytes
Format: in vitro ADME
conditionSummary: 120 min
endpoint: Hepatocyte Stability (human) % rem. 120 min

NS(=O)(=O)c1cnc(N[C@H]2CC[C@@H](Oc3nc(N4CCOCC4)cc4ncccc34)CC2)nc1    G (% remaining = 50-75%)
Cc1ccnc(N[C@H]2CC[C@@H](Oc3nc(N4CCOCC4)cc4ncccc34)CC2)n1    F (% remaining = 25-50%)
COc1ccnc(N[C@H]2CC[C@@H](Oc3nc(N4CCOCC4)cc4ncccc34)CC2)n1    F (% remaining = 25-50%)
NC(=O)c1cnc(N[C@H]2CC[C@@H](Oc3nc(N4CCOCC4)cc4ncccc34)CC2)nc1    G (% remaining = 50-75%)
c1cnc2cc(N3CCOCC3)nc(O[C@H]3CC[C@@H](Nc4ncc5sccc5n4)CC3)c2c1    F (% remaining = 25-50%)

Hepatocyte Stability (human) % rem. 120 min reported for this compound O=C(N[C@H]1CC[C@@H](Oc2nc(N3CCOCC3)cc3ncccc23)CC1)c1ccnnc1 : G (% remaining = 50-75%)

Hepatocyte Stability (human) % rem. 120 min reported for this compound O=C(N[C@H]1CC[C@@H](Oc2nc(N3CCOCC3)cc3ncccc23)CC1)c1ccncc1 : G (% remaining = 50-75%)

Hepatocyte Stability (human) % rem. 120 min reported for this compound COc1ccc(N[C@H]2CC[C@@H](Oc3nc(N4CCOCC4)cc4ncccc34)CC2)nn1 : E (% remaining = 0-25%)

Hepatocyte Stability (human) % rem. 120 min reported for this compound FC(F)c1ccc2c(O[C@H]3CC[C@@H](Nc4ncccn4)CC3)nc(N3CCOCC3)cc2n1 : G (% remaining = 50-75%)

Hepatocyte Stability (human) % rem. 120 min reported for this compound Cn1cnc(N[C@H]2CC[C@@H](Oc3nc(N4CCOCC4)cc4ncccc34)CC2)n1 : F (% remaining = 25-50%)

Hepatocyte Stability (human) % rem. 120 min reported for this compound c1cnc2cc(N3CCOCC3)nc(O[C@H]3CC[C@@H](Nc4ncnc5occc45)CC3)c2c1 : F (% remaining = 25-50%)

Hepatocyte Stability (human) % rem. 120 min reported for this compound Cn1cnc2cnc(N[C@H]3CC[C@@H](Oc4nc(N5CCOCC5)cc5ncccc45)CC3)nc21 : E (% remaining = 0-25%)

Hepatocyte Stability (human) % rem. 120 min reported for this compound c1cnc2cc(N3CCOCC3)nc(O[C@H]3CC[C@@H](Nc4ncnc5ccsc45)CC3)c2c1 : E (% remaining = 0-25%)

---

targetOfAssay: DNA-PK phosphorylation at Serine 2056 (Homo sapiens, UniProt P78527)
Construct: host or cells: FaDu
experimentDescription: Cellular Assay for Inhibition of DNA-PK Phosphorylation at Serine 2056 (FaDu cells, neocarzinostatin, sandwich ELISA)
Type: cell-based
conditionSummary: Table 1
pIC50: −log10 of the molar value.
Reported pIC50 by item:

pIC50 reported for this compound CS(=O)(=O)Nc1cnc2cc(N3CCOCC3)nc(O[C@H]3CC[C@@H](NC(=O)c4ncccn4)CC3)c2c1 : 5.00 to 6.00

pIC50 reported for this compound CC(C)c1cnc(N[C@H]2CC[C@@H](Oc3nc(N4CCOCC4)cc4ncccc34)CC2)nc1 : > 7.00

pIC50 reported for this compound Cc1nccc(N[C@H]2CC[C@@H](Oc3nc(N4CCOCC4)cc4ncccc34)CC2)n1 : 6.00 to 7.00

pIC50 reported for this compound CCS(=O)(=O)Nc1cnc2cc(N3CCOCC3)nc(O[C@H]3CC[C@@H](Nc4ncccn4)CC3)c2c1 : 6.00 to 7.00

---

experimentDescription: Pharmacokinetic study in dogs (IV, PO)
Type: in vivo, Beagle dogs
conditionSummary: male, Beagle; Table C; Dog Plasma; IV; 3 mg/kg
endpoint: Cmax at 5 min (ng/mL)
The figure you give is taken to be in ng/mL; do not add the unit.

Cmax at 5 min reported for this molecule O=C(N[C@H]1CC[C@@H](Oc2nc(N3CCOCC3)cc3ncccc23)CC1)c1ncccn1 : 2470

---

Reported microsomal CLint at 0.1 uM by item:
experimentDescription: Microsomal stability assay, mouse liver microsomes
conditionSummary: male, CD-1, mouse, liver microsomes, pH 7.4, Microsomal Stability Mouse Clint, Example 11

Oc1cnc2cc(N3CCOCC3)nc(O[C@H]3CC[C@@H](Nc4ncccn4)CC3)c2c1 [LFA117]    < 116 µL/min/mg

microsomal CLint at 0.1 uM reported for this molecule CC(c1cnc([N+](=O)[O-])n1C)N(c1cnc2cc(N3CCOCC3)nc(OC3CCC(Nc4ncccn4)CC3)c2c1)S(C)(=O)=O (stereo not drawn) [LFA010] : > 116 µL/min/mg

microsomal CLint at 0.1 uM reported for this molecule CS(=O)(=O)Nc1cnc2cc(N3CCOCC3)nc(O[C@H]3CC[C@@H](Nc4ncccn4)CC3)c2c1 [LFA006] : < 116 µL/min/mg

microsomal CLint at 0.1 uM reported for this molecule CC(c1cnc([N+](=O)[O-])n1C)N(c1cnc2cc(N3CCOCC3)nc(OC3CCC(Nc4ncc(C(F)(F)F)cn4)CC3)c2c1)S(C)(=O)=O (stereo not drawn) [LFA024] : > 116 µL/min/mg

microsomal CLint at 0.1 uM reported for this molecule O=C(N[C@H]1CC[C@@H](Oc2nc(N3CCOCC3)cc3ncc(O)cc23)CC1)c1ncccn1 [LFA115] : < 116 µL/min/mg

microsomal CLint at 0.1 uM reported for this molecule CS(=O)(=O)Nc1cnc2cc(N3CCOCC3)nc(O[C@H]3CC[C@@H](Nc4ncc(C#N)cn4)CC3)c2c1 [LFA025] : < 116 µL/min/mg

---

System: pH2AX induction in HCT116 ATM−/− multicellular tumour spheroids
experimentDescription: Prodrug radiation sensitization in multicellular tumour spheroids (pH2AX induction following radiation)
Format: cell-based
conditionSummary: 20 Gy, 5% O2, inner layers, read-out: Prodrug 5% O2 Inner layers EC50
endpoint: EC50

Cn1c(Cn2ncnc2-c2cnc3cc(N4CCOCC4)nc(O[C@H]4CC[C@@H](Nc5ncccn5)CC4)c3c2)cnc1[N+](=O)[O-] [LFA139]    500 to 1000 nM

# ---- query molecule ----
EC50 reported for this molecule Cn1c(Cn2cnc(-c3cnc4cc(N5CCOCC5)nc(OC5CCC(Nc6ncccn6)CC5)c4c3)n2)cnc1[N+](=O)[O-] (centres unmarked) [LFA138] : 1000 to 10000 nM

---

Reported pEC50 by item:
targetOfAssay: pDNA-PK ser2056 induction in FaDU spheroids (Homo sapiens)
Construct: host or cells: FaDu
experimentDescription: Multicellular tumour spheroid + radiation, pDNA-PK inhibition, FaDU
Format: cell-based
conditionSummary: Example 9 Study 2; 20 Gy; 20% O2; read-out: Spheroid Cell line: FaDU Immunohistochemical endpoint pDNA-PK inhibition EC50
pEC50: −log10 of the molar value.

Nc1cnc2cc(N3CCOCC3)nc(O[C@H]3CC[C@@H](n4ccnc4)CC3)c2c1    5.00 to 6.00

pEC50 reported for this compound CS(=O)(=O)Nc1cnc2cc(N3CCOCC3)nc(O[C@H]3CC[C@@H](n4ccnc4)CC3)c2c1 : 5.00 to 6.00

pEC50 reported for this compound c1ccc(N[C@H]2CC[C@@H](Oc3nc(N4CCOCC4)cc4ncccc34)CC2)nc1 : 5.00 to 6.00

pEC50 reported for this compound FC(F)(F)c1cnc(N[C@H]2CC[C@@H](Oc3nc(N4CCOCC4)cc4ncccc34)CC2)nc1 : 5.00 to 6.00

pEC50 reported for this compound COc1cnc(N[C@H]2CC[C@@H](Oc3nc(N4CCOCC4)cc4ncc(O)cc34)CC2)nc1 [Compound 19c] : 6.00 to 6.30

---

targetOfAssay: pDNA-PK ser2056 induction in HCT116 spheroids (Homo sapiens)
Construct: endogenous in cells; host or cells: HCT116 multicellular tumour spheroids
experimentDescription: Multicellular tumour spheroid + radiation, pDNA-PK inhibition, HCT116
Type: cell-based
conditionSummary: Example 7; spheroid, cell line HCT115 [sic]; 20 Gy; 20% O2; read-out: EC50 (pDNA-PK inhibition, immunohistochemical endpoint)
Reported EC50 by item:

Assay pDNA-PK ser2056 induction in HCT116 spheroids (Homo sapiens), sample O=C(N[C@H]1CC[C@@H](Oc2nc(N3CCOCC3)cc3ncccc23)CC1)C1CCCO1 (stereo partly shown) , EC50 read: 10 to 100 µM

Assay pDNA-PK ser2056 induction in HCT116 spheroids (Homo sapiens), sample O=C(O)c1cnc(N[C@H]2CC[C@@H](Oc3nc(N4CCOCC4)cc4ncccc34)CC2)nc1 , EC50 read: 0.5 to 1 µM

Assay pDNA-PK ser2056 induction in HCT116 spheroids (Homo sapiens), sample c1ccc(N[C@H]2CC[C@@H](Oc3nc(N4CCOCC4)cc4ncccc34)CC2)nc1 , EC50 read: 1 to 10 µM

Assay pDNA-PK ser2056 induction in HCT116 spheroids (Homo sapiens), sample O=C(N[C@H]1CC[C@@H](Oc2nc(N3CCOCC3)cc3ncccc23)CC1)c1cncnc1 , EC50 read: 1 to 10 µM
